Hey, just so you know, these numbers are from the supplement of paper PMC11208160.

Reported recombinant UMI read abundance (log10) values are given for each entry in this list.
Test: recombinant UMI read abundance after kanamycin selection (control-corrected) (log10(CPM+1)); higher = more efficient recombination; extreme values may be limits of the assay; sequences stand for … in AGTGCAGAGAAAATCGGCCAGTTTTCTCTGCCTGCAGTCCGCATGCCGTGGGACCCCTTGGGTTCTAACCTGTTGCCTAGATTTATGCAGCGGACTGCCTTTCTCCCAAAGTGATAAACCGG…AGGTTGGTTTCACT; site = the 11-nt donor;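 note: IS621 bridge recombinase in Escherichia coli cells against a fixed T5 target plasmid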

Please review the following examples before continuing.
AGCAAGGCATGGACCGGTTTTCCCGGTAATCCGTATTTGCT (site AGAAAGGCTAG): 0
CTCTACGCATGGACCGGTTTTCCCGGTAATCCGTATTTGCT (site CTCTACGCTAG): 0.572

Entry TTTATTTCATGGACCGGTTTTCCCGGTAATCCGTATTTGAG (site TTTATTTCTCT) needs its recombinant UMI read abundance (log10) filled in; supply it. 0.00225

Entry GCTAGAGCATGGACCGGTTTTCCCGGTAATCCGTATTTGTA (site GCTAGAGCTTA) needs its recombinant UMI read abundance (log10) filled in; supply it. 2.58

Entry CTATCATCATGGACCGGTTTTCCCGGTAATCCGTATTTGCT (site CAATCATCTAG) needs its recombinant UMI read abundance (log10) filled in; supply it. 0.957

* * *

Test: recombinant UMI read abundance after kanamycin selection (control-corrected) (log10(CPM+1)); higher = more efficient recombination; extreme values may be limits of the assay; sequences stand for … in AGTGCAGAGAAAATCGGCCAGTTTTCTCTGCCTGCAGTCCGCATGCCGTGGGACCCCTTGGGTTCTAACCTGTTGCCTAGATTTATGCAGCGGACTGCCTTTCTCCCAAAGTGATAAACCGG…AGGTTGGTTTCACT; site = the 11-nt donor
Respond with criterion met for recombinant UMI read abundance (log10) values of 0.008 and above, criterion not met for values below.

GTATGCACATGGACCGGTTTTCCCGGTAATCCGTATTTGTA (site GTAAGCACTTA): criterion met
CTGGCAACATGGACCGGTTTTCCCGGTAATCCGTATTTGCA (site CTGGGAACTTG): criterion not met
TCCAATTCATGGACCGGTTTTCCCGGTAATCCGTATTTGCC (site TCCAATTCTTG): criterion not met

Threshold query (recombinant UMI read abundance (log10) >= 0.008) on AGCAAGGCATGGACCGGTTTTCCCGGTAATCCGTATTTGCT (site AGGAAGGCTAG) criterion met

Threshold query (recombinant UMI read abundance (log10) >= 0.008) on TCAGAGACATGGACCGGTTTTCCCGGTAATCCGTATTTGCA (site TCAGAGACTGG) criterion met

Threshold query (recombinant UMI read abundance (log10) >= 0.008) on TGTACGCCATGGACCGGTTTTCCCGGTAATCCGTATTTGAC (site TGTACCCCTGT) criterion not met

Threshold query (recombinant UMI read abundance (log10) >= 0.008) on AGTAAGGCATGGACCGGTTTTCCCGGTAATCCGTATTTGCT (site AGGAAGGCTAG) criterion met

Threshold query (recombinant UMI read abundance (log10) >= 0.008) on AGCTCAGCATGGACCGGTTTTCCCGGTAATCCGTATTTGGA (site AGCTCAGCTCC) criterion met

Threshold query (recombinant UMI read abundance (log10) >= 0.008) on GGATAGACATGGACCGGTTTTCCCGGTAATCCGTATTTGGC (site GGATAGACTGG) criterion not met

Threshold query (recombinant UMI read abundance (log10) >= 0.008) on CTGGCAACATGGACCGGTTTTCCCGGTAATCCGTATTTGCA (site CTGGAAACTTG) criterion not met
